- Test system: F380Y/beta1
- protocol_details: modulators of BK channel variants, profiling panel, selectivity assay, cell-based, U2OS BacMam, thallium flux, beta subunits (AID 1259406);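 further: initial slope of Thallos dye fluorescence rise after thallium is added; log ratio against the mean of 0.3% DMSO vehicle wells on the same plate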
- measurement_setup: at 30 µM
Calls of active or inactive are those of the source.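 How the source made its calls: active means thallium flux through the channel raised or lowered by more than 3 SD from vehicle-only wells, actives on both sides; inactive means the rest.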
endpoint: log fold change Tl+ flux

> print(dat)
                                   molecule                  endpoint      endpoint.result
1  NC(Cc1cc(I)c(Oc2ccc(O)c(I)c2)c(I)c1)C(=O)O (stereo unspecified)  log fold change Tl+ flux     0.112 (inactive)
2  O=C(CN1CCOCC1)Nc1ccccc1Sc1nccc(C(F)(F)F)n1  log fold change Tl+ flux  -0.00692 (inactive)
3             CN(C)c1ccc(C=NNC(N)=S)c(Cl)c1  log fold change Tl+ flux       0.329 (active)
4  O=C(CNc1cc(C(F)(F)F)cc(C(F)(F)F)c1)c1ccc(Cl)cc1  log fold change Tl+ flux    0.0507 (inactive)
5                 NC(CS(=O)(=O)Cc1ccco1)=NO  log fold change Tl+ flux    0.0173 (inactive)
6               Oc1c(Cl)c(Cl)c(Cl)c2ccccc12  log fold change Tl+ flux       0.627 (active)

###

- protocol_details: antimalarial activity against Dd2 strain (AID 2302);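 further: 0% = DMSO untreated growth and 100% = chloroquine plus artemisinin killed control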
- measurement_setup: P. falciparum Dd2 in RBCs, LDH growth readout, 72 h; at 2 µM; stronger effect = higher value
Heads up, the class ranges for growth inhibition are lo (below 9%), mid (9% to below 80%), hi (80% or more)

> print(dat)
                                   compound  class.assignment
1  O=C(NCCCN1CCCCC1)c1cccc(Nc2nccc(Nc3ccc(Oc4ccccc4)cc3)n2)c1               mid
2  CCC(=C(CC)c1ccc(O)c(CNC2CCCCC2)c1)c1ccc(O)c(CNC2CCCCC2)c1                hi
3  COc1cc(Nc2ncnc3cc(OC)c(OC)cc23)cc([N+](=O)[O-])c1                lo
4  CCc1c(CCNCC/C=C/CCNCCc2ccc(OC)c(OC)c2CC)ccc(OC)c1OC                lo
5              CC(=NNc1nc2ccccc2s1)c1ccccn1               mid
6                 CCCCNCc1cc(Cl)c2ccccc2c1O                hi
7  CCCC1N=C(N)N=C(N)N1c1ccc(CC)cc1 (stereo not given)                lo
8  c1ccc2c(c1)cc(CNCCCN1CCN(CCCNCc3cc4ccccc4c4ccccc34)CC1)c1ccccc12                hi

###

- protocol_details: LFS_MB_1R medulloblastoma cell growth inhibition, synergistic combos for chromothripsis tumors, cisplatin or BGB combos (AID 1671452);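 further: cells exposed for 96 hours before readout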
- measurement_setup: LFS_MB_1R medulloblastoma cells, measured here: combination with cisplatin, at 0.5 µM, stronger effect = higher value
Rule: Condition met for inhibition not less than 10%, Condition not met for anything less.

sample_smiles	class_assignment
O=C(Nc1ccncc1)c1cc([N+](=O)[O-])ccc1Cl	Condition not met
Cc1c(-c2cnccn2)ssc1=S	Condition not met
CCc1c2c(nc3ccc(O)cc13)-c1cc3c(c(=O)n1C2)COC(=O)[C@]3(O)CC	Condition met
O=c1ncccn1[C@@H]1O[C@H](CO)[C@@H](O)[C@H]1O	Condition not met
O=c1cc(-c2cccc3c2Sc2ccccc2S3)oc(N2CCOCC2)c1	Condition not met
CO[C@H]1/C=C/O[C@@]2(C)Oc3c(C)c(O)c4c(O)c(c(C=NN5CCN(C)CC5)c(O)c4c3C2=O)NC(=O)/C(C)=C\C=C\[C@H](C)[C@H](O)[C@@H](C)[C@@H](O)[C@@H](C)[C@H](OC(C)=O)[C@@H]1C	Condition met
